Where do these numbers come from? They come from patent US20210032304A1.

# target_of_assay: FGFR-1 alpha IIIc (Homo sapiens, UniProt P11362)
# experiment_description: SPR (Horiba XelPlex), receptor immobilised, analyte in flow; given as 'associative binding constants'
readout: Kd
Note: state the figure and append the unit.

Could you please provide reported Kd for YRSRKYTSWYVALKR (modifications not checked) [FGF-PT] ? Thanks!
1000 nM
